target: 0N4R Tau fibrils (Homo sapiens, UniProt P10636); construct: made in house; assay: ^3H-THK5117 competition binding to tau fibrils in vitro; conditions: calculated from [^3H]-THK5117 tau and [^3H]-AZD2184 Aβ assays
Sequence (P10636 1-383 isoform P10636-6): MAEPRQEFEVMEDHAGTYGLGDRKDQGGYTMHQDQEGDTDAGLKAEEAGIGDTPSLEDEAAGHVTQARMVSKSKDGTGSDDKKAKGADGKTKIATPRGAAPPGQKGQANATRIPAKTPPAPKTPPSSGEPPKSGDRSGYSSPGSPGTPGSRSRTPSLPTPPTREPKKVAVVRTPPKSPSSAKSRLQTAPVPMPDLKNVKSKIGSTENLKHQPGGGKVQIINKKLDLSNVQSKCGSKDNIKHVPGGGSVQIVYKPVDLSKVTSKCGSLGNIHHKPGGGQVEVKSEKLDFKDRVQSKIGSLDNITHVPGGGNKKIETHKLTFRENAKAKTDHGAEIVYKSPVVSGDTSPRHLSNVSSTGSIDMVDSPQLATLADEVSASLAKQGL
Recorded Selectivity for tau relative to Aβ for the following compounds
assayMetric: Selectivity for tau relative to Aβ

- OCCC1CCN(c2ccc(-c3nc4ccc(O)cc4s3)cn2)CC1: 30
- OCC1CCN(c2ccc(-c3cc4cc(O)ccc4[nH]3)c(F)n2)CC1: 37
- OCC1CCN(c2ncc(-c3cc4cc(OCCF)ccc4[nH]3)cn2)CC1: 6
- CNc1ccc(/C=C/C=C/c2nc3ccc(O)cc3s2)cn1 [PBB3, reference compound]: 4
- CCOC(=O)C1CCN(c2ccc(-c3cc4cc(O)ccc4[nH]3)c(F)n2)CC1: 22
- OCC1CCN(c2ccc(-c3nc4ccc(OCCF)cc4s3)cn2)CC1: 1.5
- OCCC1CCN(c2ccc(-c3cc4ccccc4o3)cn2)CC1: 4.9
- OCC1CCN(c2ccc(-c3nc4ccc(OCCF)cc4o3)cn2)CC1: 0.4
- COc1ccc2[nH]c(-c3ccc(N4CCC(CO)CC4)nc3F)cc2c1: 17
- NC(=O)c1ccc2nc(-c3cnc(N4CCC(CCF)CC4)nc3)sc2c1: 18
- OCCC1CCN(c2ccc(-c3nc4ccccc4s3)cn2)CC1: 2.1
- O=C(NCCO)c1ccc2nc(-c3cnc(N4CCC(CCF)CC4)nc3)sc2c1: 2.5
- FCCC1CCN(c2ncc(-c3cn4ccccc4n3)cn2)CC1: 1.7
- OCC1CCN(c2ccc(-c3cc4ccccc4o3)c(F)n2)CC1: 4.7
- OCCC1CCN(c2ncc(-c3nc4ccc(O)cc4s3)cn2)CC1: 42
- COC(=O)C1CCN(c2ccc(-c3cc4cc(O)ccc4[nH]3)c(F)n2)CC1: 8
